Source listed as the Kinase Knowledgebase extract (Sharma et al. 2016).

target: PIK3CA (human); experiment: Inhibition of PIK3CA Kinase Activity

| COMPOUND | IC50 [nM] |
| --- | --- |
| N=C1NC(=O)/C(=C/c2ccc3c(c2)OCO3)S1 | 20000 |
| Cc1nc2cnc3ccc(C#Cc4cccnc4)cc3c2n1-c1ccc(C(C)(C)C#N)cc1 | 56 |
| Cc1[nH]c2ccc(Br)cc2c1C=C1Oc2cc(O)cc(O)c2C1=O | 179 |
| CCN(CC)c1ncc2c(n1)-c1sc(NC(=O)N3CCC[C@@]3(Cc3ccccc3)C(N)=O)nc1CC2 | 45 |
| C=CCN(/C=C1/C(=O)O[C@H](COC)[C@@]2(C)C1=C(O)C(=O)C1=C2[C@H](OC(C)=O)C[C@]2(C)C(O)CC[C@H]12)CC=C (stereo not given in full) | 14 |
